study.target: T1, full length human tau protein 2N4R (hT40) (human, UniProt P10636 1-758)
T1 construct: recombinant; also called T441
T1 sequence (P10636 other isoform, or with tags, fused parts or gaps limits assumed): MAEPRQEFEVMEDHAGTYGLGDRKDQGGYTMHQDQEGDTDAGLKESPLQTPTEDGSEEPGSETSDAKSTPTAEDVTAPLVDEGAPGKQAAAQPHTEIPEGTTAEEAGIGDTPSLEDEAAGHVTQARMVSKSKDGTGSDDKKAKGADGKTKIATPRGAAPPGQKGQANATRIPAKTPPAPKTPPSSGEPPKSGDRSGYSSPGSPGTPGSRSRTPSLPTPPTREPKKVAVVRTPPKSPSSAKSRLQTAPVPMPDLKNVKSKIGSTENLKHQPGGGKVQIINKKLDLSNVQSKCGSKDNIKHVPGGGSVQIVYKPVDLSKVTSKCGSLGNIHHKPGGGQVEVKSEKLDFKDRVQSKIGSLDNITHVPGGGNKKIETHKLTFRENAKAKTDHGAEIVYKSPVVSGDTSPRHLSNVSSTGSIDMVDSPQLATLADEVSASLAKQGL
test.name: SPR, scAb captured, tau analyte
observation.type: kon

# lookup: kon of CA4 scAb (scFv, not shown: small tags and cut ends, scAb) scFv: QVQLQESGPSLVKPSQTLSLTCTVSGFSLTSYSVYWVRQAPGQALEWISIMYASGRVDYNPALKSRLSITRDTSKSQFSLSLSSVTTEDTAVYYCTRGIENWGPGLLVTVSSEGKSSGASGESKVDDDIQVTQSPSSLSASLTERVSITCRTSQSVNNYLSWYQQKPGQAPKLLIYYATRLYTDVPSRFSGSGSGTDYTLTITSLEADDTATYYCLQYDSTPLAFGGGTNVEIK
458000 M⁻¹ s⁻¹

Values compiled from patent US20250355001A1.
